- Test system: Staphylococcus aureus (Sau) 516 cells
- experiment: Bacterial Susceptibility Testing Methods 2 (microbroth dilution, growth inhibition)
- Assay type: cell-based
- test context: Staphylococcus aureus, Tested Concentration 8 μg/mL; Staphylococcus aureus 516 cell growth suppressed compared to untreated sample
assay readout: inhibition at 8 µg/mL
Write down the value, and be sure its unit follows.

Sure, the documented inhibition at 8 µg/mL for CO[C@H]1CN(CCn2c(=O)ccc3ccc(C#N)cc32)CC[C@H]1NCc1ccc2c(n1)NC(=O)CO2 [Example 20] is 100%

Value of inhibition at 8 µg/mL reported for the molecule CO[C@@H]1CN(CCn2c(=O)cc(C)c3ccc(C#N)cc32)CC[C@@H]1NCc1ccc2c(n1)NC(=O)CO2 [Example 47] is 100%

Entry CO[C@@H]1CN(CCn2c(=O)ccc3ccc(C#N)cc32)CC[C@@H]1NCc1ccc2c(n1)NC(=O)CS2 [Example 24] ; inhibition at 8 µg/mL = 100%

Record CO[C@@H]1CN(CCn2c(=O)ccc3ccc(C#N)cc32)CC[C@H]1NCc1ccc2c(n1)NC(=O)CO2 [Example 42] , field inhibition at 8 µg/mL: 100%

inhibition at 8 µg/mL for COc1ccc2ncc(=O)n(CCN3CC[C@@H](NCc4ccc5c(n4)NC(=O)CO5)[C@@H](OC)C3)c2c1 [Example 15] is 97%

Record CO[C@@H]1CN(CCn2c(=O)ccc3ccc(C#N)cc32)CC[C@@H]1NCc1ccc2c(n1)NC(=O)CO2 [Example 23] , field inhibition at 8 µg/mL: 100%

Short answer for COc1ccc2ncc(=O)n(CCN3CC[C@H](NCc4ccc5c(n4)NC(=O)CO5)[C@H](OC)C3)c2c1 [Example 17] : inhibition at 8 µg/mL was 99%

Noted for N#Cc1ccc2ccc(=O)n(CCN3CC[C@@H](NCc4cc5c(cn4)OCCO5)[C@@H](O)C3)c2c1 [Example 4] : its inhibition at 8 µg/mL reads 100%

Value of measured inhibition at 8 µg/mL for the entry N#Cc1ccc2ccc(=O)n(CCN3CC[C@@H](NCc4ccc5c(n4)NC(=O)CS5)[C@@H](O)C3)c2c1 [Example 6] : 99%

Field inhibition at 8 µg/mL (entry COc1ccc2ncc(=O)n(CCN3CC[C@H](NCc4ccc5c(n4)NC(=O)CO5)[C@H](F)C3)c2c1 [Example 46] ) reads 100%

// sample N#Cc1ccc2ccc(=O)n(CCN3CC[C@H](NCc4ccc5c(n4)NC(=O)CO5)[C@H](O)C3)c2c1 [Example 2] , its inhibition at 8 µg/mL was 100%

Value of inhibition at 8 µg/mL reported for the molecule COc1ccc2ncc(=O)n(CCN3CC[C@@H](NCc4cc5c(cn4)OCCO5)[C@@H](OC)C3)c2c1 [Example 14] is 100%

Entry under test: COc1ccc2ncc(=O)n(CCN3CC[C@@H](NCc4ccc5c(n4)NC(=O)CO5)[C@@H](F)C3)c2c1 [Example 45] . Its inhibition at 8 µg/mL was 97%

molecule COc1ccc2ncc(=O)n(CCN3CC[C@H](NCc4ccc5c(n4)NC(=O)CO5)[C@@H](OC)C3)c2c1 [Example 26] , inhibition at 8 µg/mL observed: 98%

The measured inhibition at 8 µg/mL associated with COc1ccc2ncc(=O)n(CCN3CC[C@H](NCc4cc5c(cn4)OCCO5)[C@@H](OC)C3)c2c1 [Example 25] reads 98%

The reported inhibition at 8 µg/mL of the molecule COc1ccc2ncc(=O)n(CCN3CC[C@@H](NCc4cc5c(cn4)OCCO5)[C@@H](O)C3)c2c1 [Example 10] was 100%

Given item N#Cc1ccc2ccc(=O)n(CCN3CC[C@H](NCc4cc5c(cn4)OCCO5)[C@H](F)C3)c2c1 [Example 13] , the value recorded as its inhibition at 8 µg/mL is 100%

molecule CO[C@H]1CN(CCn2c(=O)ccc3ccc(C#N)cc32)CC[C@H]1NCc1ccc2c(n1)NC(=O)CS2 [Example 21] , inhibition at 8 µg/mL observed: 100%
